Exercise: for every item that follows, state its recorded Cmax.
test: Induction of H2S generation assessed as Cmax at 150 uM incubated at 22 degC and pH 7.4 by fluorescence spectrophotometry; format: functional
# output: bare number, implied unit µM

Documented Cmax of O=C(O)[C@H](Cc1ccccc1)NP(O)(=S)c1ccccc1 (stereo partly specified) : 122

Documented Cmax of O=C([O-])[C@H](Cc1cc2ccccc2[nH]1)NP([O-])(=S)c1ccccc1.[Li+].[Li+] (stereo partly specified) : 117

Documented Cmax of O=C([O-])CNP([O-])(=S)c1ccccc1.[Li+].[Li+] (stereo unspecified) : 99.5

Documented Cmax of CC(C)[C@H](NP(O)(=S)c1ccccc1)C(=O)O (stereo partly specified) : 122

Documented Cmax of S=P1(c2ccccc2)NCCCN1 : 27.2

Documented Cmax of CSCC[C@H](NP(O)(=S)c1ccccc1)C(=O)O (stereo partly specified) : 112

Documented Cmax of S=P1(c2ccccc2)OCCO1 : 27.7

Documented Cmax of S=P1(c2ccccc2)OCC2CCCN21 (stereo unspecified) : 26.9

Documented Cmax of CC[C@H](C)[C@H](NP(O)(=S)c1ccccc1)C(=O)O (stereo partly specified) : 117

Documented Cmax of CC(C)C[C@H](NP(O)(=S)c1ccccc1)C(=O)O (stereo partly specified) : 112

Documented Cmax of S=P1(c2ccccc2)NCCCO1 (stereo unspecified) : 25.1

Documented Cmax of O=C(O)[C@@H]1CCCN1P(O)(=S)c1ccccc1 (stereo partly specified) : 4

Documented Cmax of S=P1(c2ccccc2)NCCN1 : 28.4

Documented Cmax of S=P1(c2ccccc2)NCCO1 (stereo unspecified) : 29.9

Documented Cmax of C[C@H](NP(O)(=S)c1ccccc1)C(=O)O (stereo partly specified) : 102

Documented Cmax of S=P1(c2ccccc2)OCCCO1 : 24.4

----------
assay: Induction of H2S generation assessed as Cmax at 150 uM incubated at 22 degC and pH 8 by fluorescence spectrophotometry; format: functional
Exercise: for every item that follows, state its recorded Cmax.
# output: bare number, implied unit µM

Documented Cmax of CC[C@H](C)[C@H](NP(O)(=S)c1ccccc1)C(=O)O (stereo partly drawn) : 117

Documented Cmax of S=P1(c2ccccc2)NCCO1 (stereo not drawn) : 29.7

Documented Cmax of C[C@H](NP(O)(=S)c1ccccc1)C(=O)O (stereo partly drawn) : 103

Documented Cmax of CSCC[C@H](NP(O)(=S)c1ccccc1)C(=O)O (stereo partly drawn) : 113

Documented Cmax of O=C(O)[C@H](Cc1ccccc1)NP(O)(=S)c1ccccc1 (stereo partly drawn) : 120

Documented Cmax of S=P1(c2ccccc2)OCCCO1 : 25.7

Documented Cmax of S=P1(c2ccccc2)OCC2CCCN21 (stereo not drawn) : 27.1

Documented Cmax of O=C(O)[C@@H]1CCCN1P(O)(=S)c1ccccc1 (stereo partly drawn) : 4.1

Documented Cmax of O=C([O-])CNP([O-])(=S)c1ccccc1.[Li+].[Li+] (stereo not drawn) : 99.4

Documented Cmax of S=P1(c2ccccc2)NCCCN1 : 27.1

Documented Cmax of S=P1(c2ccccc2)NCCCO1 (stereo not drawn) : 25.6

Documented Cmax of S=P1(c2ccccc2)OCCO1 : 27.5

Documented Cmax of CC(C)C[C@H](NP(O)(=S)c1ccccc1)C(=O)O (stereo partly drawn) : 111

----------
test: Induction of H2S generation assessed as half life at 150 uM incubated at 37 degC and pH 5 by fluorescence spectrophotometry; format: functional
Threshold 9 min. T1/2 below it: YES. T1/2 at it or above: NO.

Asked: Criterion: T1/2 strictly below 9 min. Is it met by S=P1(c2ccccc2)OCCO1 ?
Given back: NO

Asked: Criterion: T1/2 strictly below 9 min. Is it met by CC(C)C[C@H](NP(O)(=S)c1ccccc1)C(=O)O (stereo partly drawn) ?
Given back: YES

Asked: Criterion: T1/2 strictly below 9 min. Is it met by C[C@H](NP(O)(=S)c1ccccc1)C(=O)O (stereo partly drawn) ?
Given back: YES

Asked: Criterion: T1/2 strictly below 9 min. Is it met by O=C(O)[C@H](Cc1ccccc1)NP(O)(=S)c1ccccc1 (stereo partly drawn) ?
Given back: YES

Asked: Criterion: T1/2 strictly below 9 min. Is it met by S=P1(c2ccccc2)NCCCO1 (stereo not drawn) ?
Given back: NO

Asked: Criterion: T1/2 strictly below 9 min. Is it met by S=P1(c2ccccc2)NCCCN1 ?
Given back: NO

Asked: Criterion: T1/2 strictly below 9 min. Is it met by O=C([O-])[C@H](Cc1cc2ccccc2[nH]1)NP([O-])(=S)c1ccccc1.[Li+].[Li+] (stereo partly drawn) ?
Given back: YES

Asked: Criterion: T1/2 strictly below 9 min. Is it met by CC(C)[C@H](NP(O)(=S)c1ccccc1)C(=O)O (stereo partly drawn) ?
Given back: YES

Asked: Criterion: T1/2 strictly below 9 min. Is it met by S=P1(c2ccccc2)NCCO1 (stereo not drawn) ?
Given back: NO

Asked: Criterion: T1/2 strictly below 9 min. Is it met by S=P1(c2ccccc2)OCCCO1 ?
Given back: NO

Asked: Criterion: T1/2 strictly below 9 min. Is it met by S=P1(c2ccccc2)OCC2CCCN21 (stereo not drawn) ?
Given back: NO

Asked: Criterion: T1/2 strictly below 9 min. Is it met by CC[C@H](C)[C@H](NP(O)(=S)c1ccccc1)C(=O)O (stereo partly drawn) ?
Given back: YES

----------
assay: Induction of H2S generation assessed as half life at 150 uM incubated at 22 degC and pH 1.2 by fluorescence spectrophotometry; assay type: functional
Exercise: for every item that follows, state its recorded T1/2.
# output: bare number, implied unit min

Documented T1/2 of S=P1(c2ccccc2)NCCN1 : 32.5

Documented T1/2 of C[C@H](NP(O)(=S)c1ccccc1)C(=O)O (stereo partly specified) : 2.36

Documented T1/2 of CC[C@H](C)[C@H](NP(O)(=S)c1ccccc1)C(=O)O (stereo partly specified) : 2.04

Documented T1/2 of S=P1(c2ccccc2)OCC2CCCN21 (stereo unspecified) : 29.9

Documented T1/2 of O=C([O-])[C@H](Cc1cc2ccccc2[nH]1)NP([O-])(=S)c1ccccc1.[Li+].[Li+] (stereo partly specified) : 2.97

Documented T1/2 of S=P1(c2ccccc2)NCCO1 (stereo unspecified) : 33.8

Documented T1/2 of O=C(O)[C@@H]1CCCN1P(O)(=S)c1ccccc1 (stereo partly specified) : 10.9

Documented T1/2 of CC(C)[C@H](NP(O)(=S)c1ccccc1)C(=O)O (stereo partly specified) : 2.13

Documented T1/2 of S=P1(c2ccccc2)OCCO1 : 25.4

Documented T1/2 of S=P1(c2ccccc2)OCCCO1 : 33.5

Documented T1/2 of O=C([O-])CNP([O-])(=S)c1ccccc1.[Li+].[Li+] (stereo unspecified) : 2.94

Documented T1/2 of S=P1(c2ccccc2)NCCCO1 (stereo unspecified) : 35

Documented T1/2 of CSCC[C@H](NP(O)(=S)c1ccccc1)C(=O)O (stereo partly specified) : 2.68

Documented T1/2 of S=P1(c2ccccc2)NCCCN1 : 29.2

Documented T1/2 of O=C(O)[C@H](Cc1ccccc1)NP(O)(=S)c1ccccc1 (stereo partly specified) : 2.37

Documented T1/2 of CC(C)C[C@H](NP(O)(=S)c1ccccc1)C(=O)O (stereo partly specified) : 2.65

----------
assay: Induction of H2S generation assessed as Cmax at 150 uM incubated at 22 degC and pH 8 by fluorescence spectrophotometry; assay type: functional
Exercise: for every item that follows, state its recorded Cmax.
# output: bare number, implied unit µM

Documented Cmax of CC(C)[C@H](NP(O)(=S)c1ccccc1)C(=O)O (stereo partly drawn) : 122

Documented Cmax of O=C([O-])[C@H](Cc1cc2ccccc2[nH]1)NP([O-])(=S)c1ccccc1.[Li+].[Li+] (stereo partly drawn) : 118

Documented Cmax of S=P1(c2ccccc2)NCCN1 : 28.3

----------
Exercise: for every item that follows, state its recorded T1/2.
experiment: Induction of H2S generation assessed as half life at 150 uM incubated at 37 degC and pH 5 by fluorescence spectrophotometry; assay type: functional
# output: bare number, implied unit min

Documented T1/2 of O=C([O-])CNP([O-])(=S)c1ccccc1.[Li+].[Li+] (stereo not drawn) : 2.41

Documented T1/2 of CSCC[C@H](NP(O)(=S)c1ccccc1)C(=O)O (stereo partly drawn) : 2.44

Documented T1/2 of S=P1(c2ccccc2)NCCN1 : 32.9

----------
Exercise: for every item that follows, state its recorded T1/2.
assay: Induction of H2S generation assessed as half life at 150 uM incubated at 22 degC and pH 7.4 by fluorescence spectrophotometry; assay type: functional
# do not omit the unit; it follows the number

Documented T1/2 of O=C([O-])CNP([O-])(=S)c1ccccc1.[Li+].[Li+] (stereo not drawn) : 4.93 min

Documented T1/2 of S=P1(c2ccccc2)OCCCO1 : 34.6 min

Documented T1/2 of C[C@H](NP(O)(=S)c1ccccc1)C(=O)O (stereo partly drawn) : 3.72 min

# credit: ChEMBL document CHEMBL4665656
